test system: human MT-2 T-cells; settings: Table 3; 50% inhibition of MT-2 cell growth
REPORTED ENDPOINT: CC50

Query: Give the measured CC50 of Cc1ccnc2c1NC(=O)c1cccnc1N2C1CC1 [nevirapine, reference compound] .
Reply: > 100 µM

====

test: Aqueous solubility, shake-flask procedure; format: physicochemical; details: Britton-Robinson buffer, 25 °C, pH 6.5, aqueous buffer, thermodynamic from solid; shake-flask, pH 6.5; read-out: aqueous solubility
REPORTED ENDPOINT: solubility at 48 h (µg/mL)
Supply the numeric figure in µg/mL, leaving out any unit text.

Query: I have this molecule here, N#C/C=C/c1cc(Cl)cc(Oc2ccccc2OCCn2ccc(=O)[nH]c2=O)c1 , and I need its recorded solubility at 48 h.
Reply: 510

// provenance: patent US9382245B2
